# System: zebrafish embryos
# experimental.conditions: zebrafish, in vivo
property.name: developmental toxicity on zebrafish embryonic heart development (cardiac looping)

CC1=C(/C=C/C(C)=C/C=C/C(C)=C/C(=O)O)C(C)(C)CCC1 [Tretinoin, all-trans-retinoic acid] | severe defects
CC1=C(/C=C/C(C)=C/C=C/C(C)=C\C(=O)O)C(C)(C)CCC1 [Isotretinoin, 13-cis-retinoic acid] | severe defects

---

What follows is a collection of FWHM values obtained with hiPSC-based cardiac organoids.
property.name: FWHM

CC1(C)S[C@@H]2[C@H](NC(=O)[C@H](N)c3ccc(O)cc3)C(=O)N2[C@H]1C(=O)O | smaller
O=C1NC(=O)C(c2ccccc2)(c2ccccc2)N1 | smaller

The reported measurements were obtained from patent US20220397564A1.
